# System: MT4
# Protocol Description: Cytotoxicity against human MT4 cells after 96 hrs by MTT assay
# Assay type: cell-based
# Test Context: mt4, 96 h
Reported Metric: CC50

In: Any idea what its CC50 is? The compound is Brc1cccc(/N=N/N2CCCC2)c1
Out: > 100 µM

In: Any idea what its CC50 is? The compound is Fc1ccc(F)c(/N=N/Nc2cc(F)ccc2F)c1
Out: ≥ 100 µM

In: Any idea what its CC50 is? The compound is O=C1CCN(/N=N/c2ccccc2)CC1
Out: > 100 µM

In: Any idea what its CC50 is? The compound is O=c1cccc2n1CC1CC2CN(/N=N/c2cccc([N+](=O)[O-])c2)C1 (centres undefined)
Out: > 100 µM

In: Any idea what its CC50 is? The compound is O=[N+]([O-])c1cccc(/N=N/N2CCCCC2)c1
Out: > 100 µM

In: Any idea what its CC50 is? The compound is Fc1ccc(F)c(/N=N/N2CCCC2)c1
Out: > 100 µM

In: Any idea what its CC50 is? The compound is Brc1ccc(/N=N/N2CCCC2)cc1
Out: > 100 µM

In: Any idea what its CC50 is? The compound is FC(F)(F)c1cccc(/N=N/N2CCCC2)c1
Out: > 100 µM

In: Any idea what its CC50 is? The compound is c1ccc(/N=N/N2CCCC2)cc1
Out: > 100 µM
